IC50 listing for selected compounds.
TESTED_ON: Prostaglandin G/H synthase (cyclooxygenase) (Ovis aries, UniProt P05979+P79208)
EXPERIMENTAL_DETAILS: Inhibition of Prostaglandin G/H synthase from ram seminal vesicle microsomes

Please review the following examples before continuing.
stdin: Item `CC(C)c1[nH]c2ccccc2c1Cn1ccnc1` has what recorded IC50?
stdout: > 0.0001 M

stdin: Bench note: what IC50 did `Cc1c(Cn2ccnc2)c2ccccc2n1CCC(=O)O` show?
stdout: > 0.0001 M

New cases:
stdin: Quick one: IC50 for `CCn1cc(Cn2ccnc2)c2ccccc21` ?
stdout: > 0.0001 M

stdin: Value lookup for IC50; key = `O=C(O)Cn1cc(Cn2ccnc2)c2ccccc21`
stdout: > 0.0001 M

stdin: Which measured IC50 value corresponds to `c1ccc2c(Cn3ccnc3)c[nH]c2c1` ?
stdout: > 0.001 M

stdin: Using the record for `O=C(O)CCn1cc(Cn2ccnc2)c2ccccc21` , report its IC50.
stdout: > 0.0001 M

Origin of measurements: ChEMBL document CHEMBL1123410
